Molecular target: canine TRPM8 (Canis lupus familiaris)
Sequence (Q1A7N1 1-1104): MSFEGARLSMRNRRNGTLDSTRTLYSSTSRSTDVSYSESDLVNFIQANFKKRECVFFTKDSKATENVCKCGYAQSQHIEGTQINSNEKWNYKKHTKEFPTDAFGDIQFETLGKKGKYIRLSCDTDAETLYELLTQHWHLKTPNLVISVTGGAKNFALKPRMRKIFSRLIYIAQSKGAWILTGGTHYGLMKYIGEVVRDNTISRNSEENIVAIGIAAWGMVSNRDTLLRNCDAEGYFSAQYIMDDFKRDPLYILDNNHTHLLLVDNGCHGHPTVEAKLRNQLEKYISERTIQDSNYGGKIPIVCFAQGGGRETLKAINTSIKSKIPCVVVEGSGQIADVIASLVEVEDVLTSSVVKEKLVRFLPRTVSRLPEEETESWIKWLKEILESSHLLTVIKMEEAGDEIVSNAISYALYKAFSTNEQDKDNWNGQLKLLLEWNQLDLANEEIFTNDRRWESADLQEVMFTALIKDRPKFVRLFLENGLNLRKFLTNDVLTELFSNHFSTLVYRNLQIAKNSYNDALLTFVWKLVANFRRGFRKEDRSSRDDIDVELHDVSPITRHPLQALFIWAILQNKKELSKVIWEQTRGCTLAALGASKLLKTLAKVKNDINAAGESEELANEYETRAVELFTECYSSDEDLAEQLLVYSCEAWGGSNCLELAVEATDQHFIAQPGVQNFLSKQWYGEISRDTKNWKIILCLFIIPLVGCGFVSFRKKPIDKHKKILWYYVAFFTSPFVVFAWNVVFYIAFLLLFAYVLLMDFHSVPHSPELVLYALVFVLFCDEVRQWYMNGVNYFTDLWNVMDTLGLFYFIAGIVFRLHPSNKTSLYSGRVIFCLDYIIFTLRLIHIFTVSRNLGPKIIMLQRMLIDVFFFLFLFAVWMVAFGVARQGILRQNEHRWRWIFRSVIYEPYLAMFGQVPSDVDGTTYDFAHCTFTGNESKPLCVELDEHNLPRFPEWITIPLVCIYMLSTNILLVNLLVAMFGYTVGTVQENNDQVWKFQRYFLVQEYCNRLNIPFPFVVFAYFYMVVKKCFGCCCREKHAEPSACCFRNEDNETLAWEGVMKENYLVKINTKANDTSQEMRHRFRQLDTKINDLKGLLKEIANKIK
Assay: In Vitro Canine TRPM8 Functional Assay (intracellular Ca2+ fluorescence, icilin challenge)
Format: cell-based
Settings: HEK293, @ 0.2 μM; HEK293 cells stably expressing canine TRPM8; read-out: % Inh (%) @ 0.2 μM
What inhibition at 0.2 µM was measured for each of the following?
Just the number please, in %, no unit attached.

input: Given the compound O=S(=O)(c1ccccc1)N(Cc1ccc(C(F)(F)F)c(F)c1)c1nc2ccc(C(F)(F)F)cn2c1Cl [Compound 60] , what is its reported inhibition at 0.2 µM?
output: 55

input: Same lookup for CCc1c(N(Cc2ccc(C(F)(F)F)c(F)c2)S(=O)(=O)c2ccccc2)nc2cccc(C)n12 [Compound 80] , please.
output: 99

input: Same lookup for Cc1cccn2c(C)c(N(Cc3ccc(C(F)(F)F)cc3)S(=O)(=O)c3ccccc3)nc12 [Compound 33] , please.
output: 99

input: Same lookup for O=S(=O)(c1ccc(-n2cccn2)cc1)N(Cc1ccc(OC(F)(F)F)cc1)c1nc2ccccn2c1Cl [Compound 97] , please.
output: 99

input: Same lookup for O=S(=O)(c1ccc(-n2cccn2)cc1)N(Cc1ccc(C(F)(F)F)c(F)c1)c1nc2ccccn2c1Cl [Compound 96] , please.
output: 100

input: Same lookup for CCc1c(N(Cc2ccc(OC(F)(F)F)cc2)S(=O)(=O)c2ccccc2)nc2c(C(F)(F)F)cccn12 [Compound 57] , please.
output: 82

input: Same lookup for O=S(=O)(c1ccc(-n2cccn2)cc1)N(Cc1ccc(F)c(C(F)(F)F)c1)c1nc2ccccn2c1Br [Compound 79] , please.
output: 99

input: Same lookup for O=S(=O)(c1ccc(N2CCOCC2)nc1)N(Cc1ccc(OC(F)(F)F)cc1)c1nc2ccccn2c1Cl [Compound 92] , please.
output: 99

input: Same lookup for CCc1c(N(Cc2ccc(F)c(C(F)(F)F)c2)S(=O)(=O)c2ccccc2)nc2c(C(F)(F)F)cccn12 [Compound 55] , please.
output: 94

input: Same lookup for Cc1cccn2c(C)c(N(Cc3ccc(F)c(C(F)(F)F)c3)S(C)(=O)=O)nc12 [Compound 35] , please.
output: 74

input: Same lookup for CCc1c(N(Cc2ccc(C(F)(F)F)c(F)c2)S(=O)(=O)c2ccc(-n3cccn3)cc2)nc2ccc(Cl)cn12 [Compound 88] , please.
output: 100

input: Same lookup for O=S(=O)(c1ccc(N2CCOCC2)nc1)N(Cc1ccc(C(F)(F)F)c(F)c1)c1nc2ccc(Cl)cn2c1Cl [Compound 74] , please.
output: 74

input: Same lookup for CC(C)c1c(N(Cc2ccc(OC(F)(F)F)cc2)S(=O)(=O)c2ccccc2)nc2ccccn12 [Compound 52] , please.
output: 101

input: Same lookup for CCc1c(N(Cc2ccc(OC(F)(F)F)cc2)S(=O)(=O)c2ccc(-n3cccn3)cc2)nc2ccc(Cl)cn12 [Compound 89] , please.
output: 99

input: Same lookup for Cc1cccn2c(C)c(N(Cc3ccc(F)c(C(F)(F)F)c3)S(=O)(=O)c3ccccc3)nc12 [Compound 31] , please.
output: 101

input: Same lookup for O=S(=O)(c1ccc(N2CCOCC2)nc1)N(Cc1ccc(F)c(C(F)(F)F)c1)c1nc2ccc(Cl)cn2c1Cl [Compound 78] , please.
output: 26

input: Same lookup for Cc1c(N(Cc2ccc(OC(F)(F)F)cc2)S(=O)(=O)c2ccccc2)nc2ccc(Cl)cn12 [Compound 36] , please.
output: 100

input: Same lookup for CC(C)c1c(N(Cc2ccc(F)c(C(F)(F)F)c2)S(=O)(=O)c2ccccc2)nc2ccccn12 [Compound 50] , please.
output: 101

input: Same lookup for Cc1ccc2nc(N(Cc3ccc(OC(F)(F)F)cc3)S(=O)(=O)c3ccccc3)c(C)n2c1 [Compound 39] , please.
output: 99

input: Same lookup for COC(=O)c1ccc(S(=O)(=O)N(Cc2ccc(F)c(F)c2)c2nc3ccc(Cl)cn3c2C)cc1 [Compound 111] , please.
output: 73

input: Same lookup for Cc1c(N(Cc2cccc(C(F)(F)F)c2)S(=O)(=O)c2ccccc2)nc2ccc(Cl)cn12 [Compound 44] , please.
output: 100

input: Same lookup for O=S(=O)(c1ccc(-n2cccn2)cc1)N(Cc1ccc(C(F)(F)F)c(F)c1)c1nc2ccccn2c1Br [Compound 75] , please.
output: 99

input: Same lookup for Cc1c(N(Cc2ccc(F)c(C(F)(F)F)c2)S(=O)(=O)c2ccc(-n3cccn3)cc2)nc2ccc(Cl)cn12 [Compound 102] , please.
output: 100
